B1: Osa-1-4 twister ribozyme (parent)
chain: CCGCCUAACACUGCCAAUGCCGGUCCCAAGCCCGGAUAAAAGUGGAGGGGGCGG

Variants of: B1
test.description: self-cleavage, relative activity (ratio to wild type); higher = more cleavage; co-transcriptional
Please respond with reported self-cleavage for every item in the list.
One number for each entry.

A40U G35A : 0.58

Quick batch: self-cleavage for everything below.
1. G51U G54U
2. A46U G23U
3. A29U G49U
4. G35A G42U
5. A46C A7U
6. G53C U24C

Return:
1. 0.4
2. 0.03
3. 0.02
4. 0.08
5. 0.02
6. 0.03
